assay-name: Particle size and polydispersity index (Zetasizer Nano ZS)
Type: physicochemical
study-conditions: Table 1; DOPE 40:20:38.5:1.5, Luc mRNA
outcome-measure: PDI

molecule: CCCCCCCCCCCCN(CCCCCCCCCCCC)CCN(CCCCCCCCCCCC)CC(=O)N1CCN(C(=O)CN(CCCCCCCCCCCC)CCCCCCCCCCCC)CC1
PDI: 0.099
//
molecule: CCCCCCCCCCCCCCN(CCCCCCCCCCCCCC)CCN(CCCCCCCCCCCCCC)CCN1CCN(CCN(CCCCCCCCCCCC)CCCCCC(=O)OCCCCC)CC1
PDI: 0.080

1 = CCCCCCCCCCCCN(CCCCCCCCCCCC)CCN1CCN(CCN(CCCCCC)CCN(CCCCCC)CCCCCC)CC1
2 = CCCCC/C=C\C/C=C\CCCCCCCCN(CCCCCCCC/C=C\C/C=C\CCCCC)CCN1CCN(CCN(CCCCCCCCCCCC)CCN(CCCCCCCCCCCC)CCCCCCCCCCCC)CC1
3 = CCCCCCCCCCCCN(CCCCCCCCCCCC)CCN(CCCCCCCCCCCC)CCN1CCN(CCN(CCCCCC(=O)OCCCCC)CCCCCC(=O)OCCCCC)CC1
4 = CCCCCCCCCCCCN(CCCCCCCCCCCC)CCN(CCCCCCCCCCCC)CCN1CCN(CCN(CCCCCCCCCCCC)CCCCCC(=O)OCCCCC)CC1
[in] Ordering: ascending PDI. Labels, requested order.
[out] 3, 2, 4, 1
(3: 0.008, 2: 0.060, 4: 0.096, 1: 0.180)

A = CCCCCCCCCN(CCCCCCCCC)CCN(CCCCCCCCC)CCC1CCN(C(=O)CN(CCCCCCCCC)CCCCCCCCC)CC1
B = CCCCCCCCCCCCCCN(CCCCCCCCCCCCCC)CCN(CCCCCCCCCCCCCC)CCN1CCN(CCN(CCCCCCCCCCCC)CCCCCCCCCCCC)CC1
C = CCCCCCCCCCCCN(CCCCCCCCCCCC)CCN(CCCCCCCCCCCC)CCN1CCN(C(=O)CN(CCCCCCCCCCCC)CCCCCCCCCCCC)CC1
[in] Sort the 3 molecules by PDI; largest first, smallest last. Labels, requested order.
[out] A, B, C
(A: 0.190, B: 0.130, C: 0.044)

---

assay-name: Particle size and polydispersity index (Zetasizer Nano ZS)
Type: physicochemical
study-conditions: Table 1; DOPE 40:20:38.5:1.5, Luc mRNA
outcome-measure: PDI

compound-string: CCCCCCCCCCCCN(CCCCCCCCCCCC)CC(=O)N1CCN(C(=O)CN(CCCCCCCCC)CCN(CCCCCCCCC)CCCCCCCCC)CC1
PDI: 0.110
//
compound-string: CCCCCCCCCN(CCCCCCCCC)CCN(CCCCCCCCC)CC(=O)N1CCN(C(=O)CN(CCCCCCCCC)CCCC(=O)OCCCCC)CC1
PDI: 0.200
//
compound-string: CCCCCCCCCCCCN(CCCCCCCCCCCC)CCN(CCCCCCCCCCCC)CCN1CCN(CCN(CCCCCCCCC)CCCCCCCCC)CC1
PDI: 0.058

P = CCCCCCCCCN(CCCCCCCC(=O)OC)CCN(CCCCCCCC(=O)OC)CC(=O)N1CCN(C(=O)CN(CCCCCCCCC)CCCCCCCCC)CC1
Q = CCCCCCCCCN(CCCCCCCC(=O)OC)CCN(CCCCCCCCC)CC(=O)N1CCN(C(=O)CN(CCCCCCCCC)CCCCCCCCC)CC1
[in] Looking at P and Q , which one comes out lower in PDI terms? Choose, then provide that item's label.
[out] P
(P: 0.099, Q: 0.160)
